Origin of measurements: patent US20190367616A1

The entries below are paired with their reported pKd.
Biological target: T1, cynomolgus PD-1 ECD (Acro Biosystems cat. no. PD1-05223) (cynomolgus, UniProt B0LAJ3 25-170)
T1 construct: Bought monomeric ECD; not shown: any purification tag of the vendor's product (Acro Biosystems PD1-05223, probably a His tag)
T1 sequence (B0LAJ3 entry or part of it limits assumed): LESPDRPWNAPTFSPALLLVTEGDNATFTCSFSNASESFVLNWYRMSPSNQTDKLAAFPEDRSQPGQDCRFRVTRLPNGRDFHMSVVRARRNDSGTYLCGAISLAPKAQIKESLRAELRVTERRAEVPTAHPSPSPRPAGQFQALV
Experiment: SPR, antibody on sensor, monomeric PD-1 ECD in solution
Protocol: The kinetic binding analysis was performed by Surface Plasmon Resonance (SPR) using a Continuous Flow Microspotter (CFM, Wasatch Microfluidics, US) combined with an Ibis MX96 SPR instrument (IBIS Technologies, The Netherlands). […] After completion, the recorded binding responses were fitted to a simple Langmuir 1:1 binding model with Scrubber 2 software for calculation of the on-rate (kₒₙ or kₐ), off-rate (koff or kd) and affinity (KD) constants.
Worth noting: pKd values are minus log10 of concentrations stated in mol/L.

antibody 18113 (antibody, V domains shown, Tested as human IgG1 L234A/L235A (LALA), kappa) VH: QVQLVESGGGLVKPGGSLRLSCAASGFTFSDYYMSWIRQAPGKGLEWVSYISSSGSTIYYADSAKGRFTISRDNAKNSLYLQMNSLRAEDTAVYYCARDTNWAFDYWGQGTLVTVSS VL: DIQLTQSPDSLAVSLGERATINCKSSQSVFYSANNKNYLAWYQQKPGQPPKLLIYWTSTRESGVPDRFRGSGSGTDFTLTISSLQAEDVAVYYCQQFYSTPRTFGQGTKVEIKR | 8.28
antibody 18400 (antibody, V domains shown, Tested as human IgG1 L234A/L235A (LALA), kappa) VH: QLQLQESGPGLVKPSGTLSLTCAVSGGSISSSNWWSWVRQPPKKGLEWVGEIFHDGTTSYNPSLKSRVTMSVDKSKNQFSLKLSSVTAADTAVYYCARGNWGSGALDIWGPGTMVTVSS VL: EIVMTQSPSPLSASVGDRVTITCRASQGIRNDLGWYQQKPGKAPKLLIYAASSLQSGVPSRFSGSGSGTDFTLTISSLQPEDFATYYCLQDYNYPRTFGQGTKVEIKR | 8.43

The reported value for antibody 18049 (antibody, V domains shown, Tested as human IgG1 L234A/L235A (LALA), kappa) VH: QVQLVESGGGVVQPGRSLRLSCAASGFTFSNYGMHWVRQAPGKGLEWVAVIWYDGSDKYYADSVKGRFTISRDNSKNTLYLQMNSLRAEDTAVYYCAGGGNYYGDFWGQGTLVTVSS VL: EIVMTQSPSSLSASVGDRVTITCRASQGIRNDLGWYQQKPGKAPKRLIYVASNLQSGVPSRFSGSGSGTEFTLTISSLQPEDFATYYCLQYNSYPWTFGQGTKVEIKR in terms of pKd is 8.68
